System: UniProtKB P17252 | Read-out: pIC50 | Origin: multiple publications
Answers are plain numbers, as −log10 of the molar value.

{"compound": "O=C1NC(=O)c2c1c1c3cccc(O)c3[nH]c1c1c2c2cccc(O)c2n1C1OC(CO)C(O)C(O)C1O (centres undefined)", "pIC50": 5.42}

Hi, could you look up pIC50 for each item in my list?
1. O=C(NCc1ccccc1C(F)(F)F)c1cccc(NCc2nnc(-c3ccncc3)n2CCO)c1
2. O=C(NCc1ccccc1)c1cccc(NCc2cc(-c3ccncc3)on2)c1
3. NCc1ccc2cccc(C3=C(c4c[nH]c5ccccc45)C(=O)NC3=O)c2c1
4. FC(F)C(F)(F)Oc1cccc(Nc2nccc(-c3ccc(Cl)cc3)n2)c1

1. 5.12
2. 5.60
3. 7.44
4. 6.07
